Ref: the supplement of paper PMC8728848

tgt: Gal(b1-3)GlcNAc(b1-3)GalNAc
assay.explanation: glycan array binding signal (z-score within array); higher = stronger binding
condition.label: glycan notation: IUPAC condensed, linker removed
The entries come from a sample that favours the strongest signals as a whole.
recorded.endpoint: glycan array binding signal (z-score)

binder	reported.value
PfulAvr4 (Pseudocercospora fuligena) (protein) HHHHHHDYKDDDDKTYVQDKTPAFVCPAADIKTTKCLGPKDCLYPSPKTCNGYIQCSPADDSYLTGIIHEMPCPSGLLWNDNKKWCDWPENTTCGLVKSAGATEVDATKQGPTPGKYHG	-0.105
Epa21 (Candida glabrata) (protein) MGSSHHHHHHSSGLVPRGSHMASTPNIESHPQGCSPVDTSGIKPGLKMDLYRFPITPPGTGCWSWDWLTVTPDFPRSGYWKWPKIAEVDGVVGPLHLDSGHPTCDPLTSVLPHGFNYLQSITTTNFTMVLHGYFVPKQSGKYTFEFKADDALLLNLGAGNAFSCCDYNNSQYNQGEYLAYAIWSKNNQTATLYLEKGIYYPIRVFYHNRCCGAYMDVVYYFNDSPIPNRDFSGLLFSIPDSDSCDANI	-0.317
FimA-N3 (Actinomyces oris) (protein) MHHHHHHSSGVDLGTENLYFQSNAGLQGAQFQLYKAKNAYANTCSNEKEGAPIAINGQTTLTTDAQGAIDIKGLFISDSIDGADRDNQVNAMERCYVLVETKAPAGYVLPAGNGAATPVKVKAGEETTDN	-0.259
Epa19 (Candida glabrata) (protein) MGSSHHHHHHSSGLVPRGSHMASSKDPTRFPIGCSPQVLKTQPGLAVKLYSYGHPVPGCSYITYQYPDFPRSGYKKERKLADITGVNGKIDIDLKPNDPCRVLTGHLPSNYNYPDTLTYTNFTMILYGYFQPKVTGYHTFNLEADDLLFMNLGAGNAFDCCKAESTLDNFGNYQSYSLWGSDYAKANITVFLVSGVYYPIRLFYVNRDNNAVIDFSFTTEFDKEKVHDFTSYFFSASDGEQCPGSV	-0.204
